biological target: T1, soluble human TNF-alpha (human, UniProt P01375 77-233); experiment: competition ELISA: VHH mixed with human TNF-alpha, binding to coated etanercept (TNFR2-Fc)
T1 construct: Recombinant, bought (Invitrogen PHC3015 in some assays); also called hs-TNF-alpha; h-TNF-alpha
T1 sequence (P01375 77-233 limits assumed): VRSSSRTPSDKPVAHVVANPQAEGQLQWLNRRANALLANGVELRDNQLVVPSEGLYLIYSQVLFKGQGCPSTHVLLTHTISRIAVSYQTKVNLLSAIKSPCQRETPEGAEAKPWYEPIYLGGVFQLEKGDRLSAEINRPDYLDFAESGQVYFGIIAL
RECORDED_METRIC: EC50 (nM)
# output: bare number, implied unit nM

Quick check: EC50 of Q62F11 (VHH, not shown: small tags and cut ends, Neither Family 1 nor Family 2; purified from E. coli) VHH: QVQLVESGGGLVQPGGSLRLSCAASGFSFSDYVMGWFRQAPGKEREFVGFIRWDGLVTRYADAVKGRFTISRDNARNTLSLQTIGLLAEDTAVYYCAASGGGSGPVNAGSYEYWGQGTQVTVSS ? 2.3

Here is the next binder: Q62F2 (VHH, not shown: small tags and cut ends, Family 1; purified from E. coli) VHH: QVQLVESGGGLVQPGGSLRLSCAASGFDFNSHWMYWVRQAPGKGLEWVSEINTNGLITNYVDSVKGRFTVSRDNAANTLYLEMTSLKPEDTALYYCARNQKGLNKGQGTQVTVSS 0.7

Again, but for Q62F10 (VHH, not shown: small tags and cut ends, Family 2; purified from E. coli) VHH: EVQLVESGGGLVQPGGSLRLSCVASGFDFNIHWMYWVRQAPGKELEWVAEINTNGLITVYPDSVKGRFTISRDNAKNTLFLQMNNLKFEDTAVYYCTNTQNGKTKGQGTQVTVSS 30

Entry to check: Q65D1 (VHH, not shown: small tags and cut ends, Family 1; purified from E. coli) VHH: EVQLVESGGGLVQPGGSLRLSCTASGFDFDNHWMCWVRQAPGKGLEWVSEINTNGLITKYADFVKGRFTVSRDNAANTLYLQITRLKPEDTALYYCARNQKGLNKGQGTQVTVSS 0.37

Every entry's value here was drawn from patent US20200317769A1.
